# TEST SYSTEM: FimZ (Salmonella enterica)
# Construct: Flag-FimZ-His, whole fimZ fragment of SL1344 in pET-28a
# ASSAY SUMMARY: SPR (Biacore X100, His-antibody capture on CM5 chip); EMSA support
MEASURE NAME: Kd
Report as: number unit

Reported Kd, compound "O=C1C[C@@H](c2ccc(O)cc2)Oc2cc(O)cc(O)c21" : ____
33.9 µM

---

# TEST SYSTEM: FimZ (Salmonella enterica, UniProt P26319, I135A)
# Construct: Flag-FimZ-His mutant
# Sequence (P26319 whole entry): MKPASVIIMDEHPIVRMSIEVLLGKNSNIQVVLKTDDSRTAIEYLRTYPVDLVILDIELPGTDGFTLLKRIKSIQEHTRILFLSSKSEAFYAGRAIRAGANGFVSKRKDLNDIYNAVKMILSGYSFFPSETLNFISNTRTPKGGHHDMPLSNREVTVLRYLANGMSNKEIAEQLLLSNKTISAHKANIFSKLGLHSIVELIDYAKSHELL
# ASSAY SUMMARY: SPR (Biacore X100, His-antibody capture on CM5 chip)
MEASURE NAME: Kd (µM)
Answers are plain numbers, in µM.

For the compound shown here, "O=C1C[C@@H](c2ccc(O)cc2)Oc2cc(O)cc(O)c21" , give the reported Kd.
152
